test: Particle size, PDI and zeta potential of mRNA-loaded lipid nanoparticles (Malvern Zetasizer nano); format: physicochemical; conditions: Table 1; Luciferase mRNA LNP; cationic lipid:DSPC:cholesterol:DMG-PEG2000 50:10:38.5:1.5 molar
reported-metric: Zeta potential (mV)
Quick reminder: number only, in mV, skip the unit.

Request: I'd like to know its Zeta potential (mV). The compound in question is CCCCCCCCSC(CCCCCC)C(=O)OCCCCCCN(CCO)CCCCCCOC(=O)C(CCCCCC)CCCCCCCC (stereo not shown)
Response: −4.12

Request: I'd like to know its Zeta potential (mV). The compound in question is CCCCCCCCOCC(CCCC)C(=O)OCCCCCN(CCO)CCCCCCCC(=O)OC(CCCCCCCC)CCCCCCCC (stereo not shown)
Response: 0.79

Request: I'd like to know its Zeta potential (mV). The compound in question is CCCCCCCCSCC(C)C(=O)OCCCCCN(CCO)CCCCCCCOC(=O)C(CCCCCCCC)CCCCCCCC (stereo not shown)
Response: −2.82

Request: I'd like to know its Zeta potential (mV). The compound in question is CCCCCCCCCCSCCC(=O)OCCCCCN(CCO)CCCCCCCC(=O)OC(CCCCCCCC)CCCCCCCC
Response: −1.31

Request: I'd like to know its Zeta potential (mV). The compound in question is CCCCCCCCC(CCCCCCCC)C(=O)OCCCCCCCN(CCO)CCCCCCCOC(=O)C(C)COCCCCCC (stereo not shown)
Response: −0.15

Request: I'd like to know its Zeta potential (mV). The compound in question is CCCCCCCCCCSCCC(=O)OCCCCCN(CCCCCCCC(=O)OC(CCCCCCCC)CCCCCCCC)CCN(C)C
Response: 7.09

Request: I'd like to know its Zeta potential (mV). The compound in question is CCCCCCCCCCSCC(C)C(=O)OCCCCCN(CCO)CCCCCCCC(=O)OC(CCCCCCCC)CCCCCCCC (stereo not shown)
Response: −0.26
